system name: T1, rhIL-17A (human, UniProt Q16552 24-155)
T1 construct: Homodimer; expressed from adenoviral vectors in HEK 293 cells; also called recombinant human IL-17A; adenovirus-derived rhIL-17A
T1 sequence: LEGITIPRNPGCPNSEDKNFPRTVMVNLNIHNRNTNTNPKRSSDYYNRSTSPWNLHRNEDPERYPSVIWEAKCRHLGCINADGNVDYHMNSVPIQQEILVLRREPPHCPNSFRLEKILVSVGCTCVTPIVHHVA
method notes: sandwich ELISA, IL-17A captured on rat 12E6, antibody titrated
Define the label as yes (1) when EC50 is strictly less than 0.07 nM and as no (0) in all remaining cases.

Examples with answers:
hu 16C10 VH N54A (antibody, human IgG1, V domains shown, Variant of hu 16C10 wt; Human IgG1/kappa; also called hu16C10 (N54A)) VH: QVQLQESGPGLVKPSETLSLTCTVSGFSLPSHSVSWIRQPPGKGLEWIGIIWNAGGTDYNSAFKSRVTISVDTSKNQFSLKLSSVTAADTAVYYCARNMYITDYYYENYFMDAWGQGTLVTVSS VL: DIVMTQSPLSLPVTPGEPASISCKSSQSLLFSENQKNYLAWYLQKPGQSPQLLIYWTSTRQSGVPDRFSGSGSGTDFTLKISRVEAEDVGVYYCQQSYYTPYTFGQGTKVEIKR	no (0)
hu 16C10 VH N60Q (antibody, human IgG1, V domains shown, Variant of hu 16C10 wt; Human IgG1/kappa) VH: QVQLQESGPGLVKPSETLSLTCTVSGFSLPSHSVSWIRQPPGKGLEWIGIIWNNGGTDYQSAFKSRVTISVDTSKNQFSLKLSSVTAADTAVYYCARNMYITDYYYENYFMDAWGQGTLVTVSS VL: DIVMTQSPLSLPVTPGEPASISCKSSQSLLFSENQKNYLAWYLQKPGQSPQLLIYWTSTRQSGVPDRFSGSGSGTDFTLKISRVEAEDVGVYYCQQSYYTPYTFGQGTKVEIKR	no (0)

-- ask Strictly below 0.07 nM in EC50? humanized 16C10 (VH N54Q/M96A) (antibody, human IgG1, kappa, V domains shown, Human IgG1/kappa; also called hu 16C10; hu16C10) VH: QVQLQESGPGLVKPSETLSLTCTVSGFSLPSHSVSWIRQPPGKGLEWIGIIWNQGGTDYNSAFKSRVTISVDTSKNQFSLKLSSVTAADTAVYYCARNAYITDYYYENYFMDAWGQGTLVTVSS VL: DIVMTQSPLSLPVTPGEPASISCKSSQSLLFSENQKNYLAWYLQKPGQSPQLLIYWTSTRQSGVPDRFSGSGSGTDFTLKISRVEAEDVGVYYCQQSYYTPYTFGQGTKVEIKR
-- reply no (0)

-- ask Strictly below 0.07 nM in EC50? hu 16C10 VH M100hF (antibody, human IgG1, V domains shown, Variant of hu 16C10 wt; Human IgG1/kappa; also called hu16C10 (M100hF)) VH: QVQLQESGPGLVKPSETLSLTCTVSGFSLPSHSVSWIRQPPGKGLEWIGIIWNNGGTDYNSAFKSRVTISVDTSKNQFSLKLSSVTAADTAVYYCARNMYITDYYYENYFFDAWGQGTLVTVSS VL: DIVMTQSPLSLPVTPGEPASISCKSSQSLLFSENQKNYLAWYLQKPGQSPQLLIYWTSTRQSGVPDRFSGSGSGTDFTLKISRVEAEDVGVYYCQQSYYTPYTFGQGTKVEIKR
-- reply yes (1)

-- ask Strictly below 0.07 nM in EC50? hu 16C10 VH N60A (antibody, human IgG1, V domains shown, Variant of hu 16C10 wt; Human IgG1/kappa) VH: QVQLQESGPGLVKPSETLSLTCTVSGFSLPSHSVSWIRQPPGKGLEWIGIIWNNGGTDYASAFKSRVTISVDTSKNQFSLKLSSVTAADTAVYYCARNMYITDYYYENYFMDAWGQGTLVTVSS VL: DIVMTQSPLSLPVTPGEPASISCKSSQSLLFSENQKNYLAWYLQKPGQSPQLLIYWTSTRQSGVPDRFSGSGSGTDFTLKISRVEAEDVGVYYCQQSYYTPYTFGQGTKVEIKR
-- reply yes (1)

-- ask Strictly below 0.07 nM in EC50? humanized 16C10 wt (antibody, human IgG1, kappa, V domains shown, Humanized antibody with the parental rat CDRs; Human IgG1/kappa; also called hu 16C10 wt; hu16C10 (wt)) VH: QVQLQESGPGLVKPSETLSLTCTVSGFSLPSHSVSWIRQPPGKGLEWIGIIWNNGGTDYNSAFKSRVTISVDTSKNQFSLKLSSVTAADTAVYYCARNMYITDYYYENYFMDAWGQGTLVTVSS VL: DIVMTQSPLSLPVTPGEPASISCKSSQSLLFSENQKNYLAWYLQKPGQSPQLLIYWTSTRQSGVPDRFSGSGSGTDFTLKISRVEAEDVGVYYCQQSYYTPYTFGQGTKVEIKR
-- reply yes (1)

-- ask Strictly below 0.07 nM in EC50? hu 16C10 VH N54Q (antibody, human IgG1, V domains shown, Variant of hu 16C10 wt; Human IgG1/kappa; also called hu16C10 (N54Q)) VH: QVQLQESGPGLVKPSETLSLTCTVSGFSLPSHSVSWIRQPPGKGLEWIGIIWNQGGTDYNSAFKSRVTISVDTSKNQFSLKLSSVTAADTAVYYCARNMYITDYYYENYFMDAWGQGTLVTVSS VL: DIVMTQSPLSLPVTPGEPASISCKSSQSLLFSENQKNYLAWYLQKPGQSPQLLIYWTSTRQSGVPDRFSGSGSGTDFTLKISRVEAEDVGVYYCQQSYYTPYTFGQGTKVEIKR
-- reply yes (1)

-- ask Strictly below 0.07 nM in EC50? hu 16C10 VH M96A (antibody, human IgG1, V domains shown, Variant of hu 16C10 wt; Human IgG1/kappa; also called hu16C10 (M96A)) VH: QVQLQESGPGLVKPSETLSLTCTVSGFSLPSHSVSWIRQPPGKGLEWIGIIWNNGGTDYNSAFKSRVTISVDTSKNQFSLKLSSVTAADTAVYYCARNAYITDYYYENYFMDAWGQGTLVTVSS VL: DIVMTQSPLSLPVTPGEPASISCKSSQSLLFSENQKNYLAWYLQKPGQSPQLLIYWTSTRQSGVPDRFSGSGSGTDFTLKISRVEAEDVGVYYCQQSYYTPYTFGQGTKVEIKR
-- reply yes (1)

-- ask Strictly below 0.07 nM in EC50? hu 16C10 VH M96F (antibody, human IgG1, V domains shown, Variant of hu 16C10 wt; Human IgG1/kappa) VH: QVQLQESGPGLVKPSETLSLTCTVSGFSLPSHSVSWIRQPPGKGLEWIGIIWNNGGTDYNSAFKSRVTISVDTSKNQFSLKLSSVTAADTAVYYCARNFYITDYYYENYFMDAWGQGTLVTVSS VL: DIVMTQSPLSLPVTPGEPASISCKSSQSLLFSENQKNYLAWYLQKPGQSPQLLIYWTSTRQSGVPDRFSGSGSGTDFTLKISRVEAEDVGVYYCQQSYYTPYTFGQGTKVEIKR
-- reply no (0)
